target-entity: T1, human PCSK9 (proprotein convertase subtilisin kexin type 9) (human, UniProt Q8NBP7 31-692)
T1 construct: Directly immobilized (SPR ProteOn), biotinylated (BLI), or in solution, depending on the assay; also called hPCSK9
assay-procedure: FRET, competitor EGFA peptide
measured-attribute: IC50 (nM)

2382H10 (designed binder, Anti-PCSK9 Adnectin, His6-tagged) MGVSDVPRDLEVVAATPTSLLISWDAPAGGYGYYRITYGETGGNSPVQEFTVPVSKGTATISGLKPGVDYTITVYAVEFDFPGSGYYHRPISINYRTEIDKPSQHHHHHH    2.6
2011H05 (designed binder, Anti-PCSK9 Adnectin, His6-tagged; also called ATI001091) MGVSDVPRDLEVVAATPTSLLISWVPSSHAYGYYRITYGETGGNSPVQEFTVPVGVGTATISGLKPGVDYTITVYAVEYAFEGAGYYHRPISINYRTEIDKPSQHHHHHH    2.7
